Biological target: KLHDC2^SBD (Homo sapiens, UniProt Q9Y2U9)
Sequence (Q9Y2U9 15-361): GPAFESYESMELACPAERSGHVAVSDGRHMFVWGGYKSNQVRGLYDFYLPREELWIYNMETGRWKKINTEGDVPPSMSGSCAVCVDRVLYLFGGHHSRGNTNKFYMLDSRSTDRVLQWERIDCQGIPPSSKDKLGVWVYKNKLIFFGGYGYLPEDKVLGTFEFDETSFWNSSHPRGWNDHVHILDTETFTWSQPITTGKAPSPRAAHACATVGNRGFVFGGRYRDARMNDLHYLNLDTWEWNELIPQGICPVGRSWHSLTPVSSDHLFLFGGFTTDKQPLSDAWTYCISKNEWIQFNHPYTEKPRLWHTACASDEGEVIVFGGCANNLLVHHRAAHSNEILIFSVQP
Experiment: TR-FRET assay, competition with di-Gly degron peptide binding to KLHDC2^SBD
Set-up: KLHDC2^SBD (15-361) and its Avi-tagged counterpart were expressed in E. coli Rosetta2 cells; 6XHis-MBP (N, cleaved yes); made in house; host or cells: E. coli Rosetta2
Measure: pIC50
// pIC50 is dimensionless: -log10 of concentration (M)

Challenge: Which pIC50 value is on record for `COCn1cc(-c2nc(CC(=O)NCC(=O)O)cs2)ccc1=O` ?
Response given: 4.26

Where do these numbers come from? They come from paper PMC11470957.
